This collection of values is drawn from patent US7993884B2.

# target-under-test: UniProtKB O52575
# test-context: SXA pH 5.3, 25° C. vs B. pumilus pH 7.15, 25° C.
measured-property: factor by which kcat of SXA is higher than that of the Bacillus pumilus enzyme

compound	result
OC1OC[C@@H](O[C@@H]2OC[C@@H](O[C@@H]3OC[C@@H](O[C@@H]4OC[C@@H](O)[C@H](O)[C@H]4O)[C@H](O)[C@H]3O)[C@H](O)[C@H]2O)[C@H](O)[C@H]1O (some centres unmarked)	31
OC1OC[C@@H](O[C@@H]2OC[C@@H](O[C@@H]3OC[C@@H](O[C@@H]4OC[C@@H](O[C@@H]5OC[C@@H](O)[C@H](O)[C@H]5O)[C@H](O)[C@H]4O)[C@H](O)[C@H]3O)[C@H](O)[C@H]2O)[C@H](O)[C@H]1O (some centres unmarked)	20

----------
# target-under-test: Selenomonas ruminantium GA192 β-D-xylosidase (SXA), wild type, SEQ ID NO: 2 (Pseudoselenomonas ruminantium)
# experimental-protocol: Steady-state kinetics of SXA with 4NPX2, A2 and X2-X6 by HPLC (Example 1)
# test-context: pH 5.3, 25° C, A2 = 1
Overview of reported relative kcat value across a group of compounds:

compound	relative kcat value
O=[N+]([O-])c1ccc(O[C@@H]2O[C@@H](CO)[C@H](O)[C@H]2O)cc1 [4NPA, 4-nitrophenyl-α-L-arabinofuranoside]	34
O=[N+]([O-])c1ccc(O[C@@H]2OC[C@@H](O)[C@H](O)[C@H]2O)cc1 [4NPX, 4-nitrophenyl-β-D-xylopyranoside]	340
OC1OC[C@@H](O[C@@H]2OC[C@@H](O)[C@H](O)[C@H]2O)[C@H](O)[C@H]1O (stereo partly shown)	5600
OC[C@@H]1O[C@@H](OC[C@@H]2OC(O)[C@H](O)[C@H]2O)[C@H](O)[C@H]1O (stereo partly shown)	1

----------
Overview of reported Relative Rate across a group of compounds:
# target-under-test: SXA (Selenomonas ruminantium, UniProt O52575)
# experimental-protocol: SXA-catalyzed hydrolysis of 4NP-glycoside substrates, initial rates (Methods A and B);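 note: initial rates from 4-nitrophenol release, tracked by absorbance over roughly 0.3 min and converted using product-minus-substrate extinction differences, in 1 mL mixtures started by enzyme addition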
# Type: biochemical
# test-context: 5 mM 4NP glycoside, 100 mM succinate-NaOH, pH 5.3, 25° C., Method A; initial rate relative to 4NPX

compound	Relative Rate
O=[N+]([O-])c1ccc(O[C@@H]2O[C@@H](CO)[C@H](O)[C@H]2O)cc1 [4NPA, 4-nitrophenyl-α-L-arabinofuranoside]	0.101 ± 0.003
O=[N+]([O-])c1ccc(O[C@H]2O[C@H](CO)[C@@H](O)[C@H](O)[C@@H]2O)cc1 [4-Nitrophenyl-α-D-mannopyranoside]	<10^−6
O=[N+]([O-])c1ccc(O[C@H]2O[C@H](CO)[C@@H](O)[C@H](O)[C@H]2O)cc1 [4-Nitrophenyl-α D-glucopyranoside]	<10^−6
O=[N+]([O-])c1ccc(O[C@H]2O[C@H](CO)[C@H](O)[C@H](O)[C@H]2O)cc1 [4-Nitrophenyl-α-D-galactopyranoside]	<10^−6
O=[N+]([O-])c1ccc(O[C@H]2OC[C@H](O)[C@H](O)[C@H]2O)cc1 [4-Nitrophenyl-β-L-arabinopyranoside]	<10^−6
O=[N+]([O-])c1ccc(O[C@@H]2OC[C@H](O)[C@H](O)[C@H]2O)cc1 [4-Nitrophenyl-α-L-arabinopyranoside]	<10^−6
